- ASSAY_TEXT: Terminal half life in rat at 1 mg/kg, iv
- Format: ADME, organism-based
- Set-up: dose 1 mg/kg, route intravenous
- APPLIED_CONDITIONS: in vivo, read-out: beta t1/2 (converted)
OBSERVED_PROPERTY: half-life (min)

[[record]]
chem_smiles = "O=C(Nc1ccc(-c2ccncn2)c(-c2ccco2)n1)C1CC1"
observed_property = "half-life"
result_units = "min"
number = 30


I: O=C(Nc1ccc(-c2ccncc2)c(-c2ccccn2)n1)C1CC1
II: O=C(Nc1ccc(-c2ccncc2)c(-c2ncco2)n1)C1CC1
Q: I need your help: which of the pair I , II has higher half-life? Choose, then provide that item's label.
Result: II
(II: 54 min, I: 30 min)

----------
- ASSAY_TEXT: Tmax in rat at 10 mg/kg, po
- Format: ADME, organism-based
- Set-up: dose 10 mg/kg, route oral
- APPLIED_CONDITIONS: in vivo
OBSERVED_PROPERTY: Tmax (min)
Provide the reading as a plain figure in min.

For reference, reported Tmax for O=C(Nc1ccc(-c2ccncn2)c(-c2ccco2)n1)C1CC1 stands at 18

----------
- EXPERIMENTAL_SYSTEM: Adenosine receptor A3 (Homo sapiens, UniProt P0DMS8)
- Sequence (P0DMS8 whole entry): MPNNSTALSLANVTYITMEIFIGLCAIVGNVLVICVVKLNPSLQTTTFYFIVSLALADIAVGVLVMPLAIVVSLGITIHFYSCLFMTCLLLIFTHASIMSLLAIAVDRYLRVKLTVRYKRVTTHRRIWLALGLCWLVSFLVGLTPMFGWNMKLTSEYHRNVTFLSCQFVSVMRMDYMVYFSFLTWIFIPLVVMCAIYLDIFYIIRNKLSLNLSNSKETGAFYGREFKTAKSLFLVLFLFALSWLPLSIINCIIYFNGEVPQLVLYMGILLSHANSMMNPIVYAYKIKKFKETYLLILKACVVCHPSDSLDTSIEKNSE
pKi: −log10 of the molar value.
OBSERVED_PROPERTY: pKi

[[record]]
chem_smiles = "O=C(Nc1ccc(-c2ccncc2)c(-c2cccc(F)c2)n1)C1CC1"
experimental_system = "Adenosine receptor A3 (Homo sapiens, UniProt P0DMS8)"
observed_property = "pKi"
number = 6.15


1: c1cncc(Nc2ncc(-c3ccncn3)c(-c3ccco3)n2)c1
2: O=C(Nc1ccc(Br)c(-c2ccco2)n1)C1CC1
Q: I need your help: which of the pair 1 , 2 has higher pKi? Choose, then provide that item's label.
Result: 2

I: CC(=O)Nc1ccc(-c2ccncc2)c(-c2ccco2)n1
II: O=C(Nc1ccc(-c2ccncc2)c(-c2ccccc2F)n1)C1CC1
Q: Compare reported pKi values for I and II . Which is lower? Choose, then provide that item's label.
Result: II

----------
- EXPERIMENTAL_SYSTEM: Adenosine receptor A1 (Homo sapiens)
- ASSAY_TEXT: Inhibition of [3H]DPCPX binding to human adenosine A1 receptor expressed in CHO cells at 1 uM after 90 mins by filtration binding assay
- Assay type: cell-based
OBSERVED_PROPERTY: inhibition (%)

Worked cases, answers included:
[[record]]
chem_smiles = "O=C(Nc1ccc(-c2ccncc2)cn1)C1CC1"
observed_property = "inhibition"
number = 8

[[record]]
chem_smiles = "O=C(Nc1ccc(-c2ccncc2)c(-c2cccnc2)n1)C1CC1"
observed_property = "inhibition"
number = 21


A: O=C(Nc1ccc(-c2ccncc2)c(-c2cocn2)n1)C1CC1
B: O=C(Nc1ccc(-c2ccncc2)c(-c2cc[nH]n2)n1)C1CC1
C: O=C(Nc1ccc(-c2ccncc2)c(-n2cccn2)n1)C1CC1
Q: Rank the items in ascending order with respect to inhibition. Use the labels to give the ranking in the order requested.
Result: A, B, C

----------
- ASSAY_TEXT: Metabolic stability in human liver microsomes assessed as turnover at 5 uM after 30 mins in absence of NADPH
- Assay type: ADME, Microsome
- APPLIED_CONDITIONS: read-out: Activity
OBSERVED_PROPERTY: metabolised at 0.5 h, 5 µM (%)

[[record]]
chem_smiles = "O=C(Nc1ccc(-c2ccncc2F)c(-c2ccco2)n1)C1CC1"
number = 77

[[record]]
chem_smiles = "O=C(Nc1ccc(-c2ccncc2)c(-c2ccccc2F)n1)C1CC1"
number = 86


----------
- EXPERIMENTAL_SYSTEM: Adenosine receptor A1 (Homo sapiens) (UniProt P30542)
- Sequence (P30542 whole entry): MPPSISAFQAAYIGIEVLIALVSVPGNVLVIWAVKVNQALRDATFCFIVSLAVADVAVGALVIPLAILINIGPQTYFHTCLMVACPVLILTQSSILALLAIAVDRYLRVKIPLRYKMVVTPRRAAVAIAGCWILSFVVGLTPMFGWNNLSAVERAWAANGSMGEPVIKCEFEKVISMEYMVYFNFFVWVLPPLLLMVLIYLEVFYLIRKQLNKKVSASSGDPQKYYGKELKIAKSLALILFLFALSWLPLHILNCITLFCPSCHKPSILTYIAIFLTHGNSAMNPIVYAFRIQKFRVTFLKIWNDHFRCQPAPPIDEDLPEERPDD
- ASSAY_TEXT: Inhibition of [3H]DPCPX binding to human adenosine A1 receptor expressed in CHO cells at 1 uM after 90 mins by filtration binding assay
- Assay type: cell-based
OBSERVED_PROPERTY: inhibition (%)

[[record]]
chem_smiles = "CC(=O)c1nc(NC(=O)C2CC2)ccc1-c1ccncc1"
experimental_system = "Adenosine receptor A1 (Homo sapiens) (UniProt P30542)"
observed_property = "inhibition"
number = 6

[[record]]
chem_smiles = "CC(=O)Nc1ccc(-c2ccncn2)c(-c2ccco2)n1"
experimental_system = "Adenosine receptor A1 (Homo sapiens) (UniProt P30542)"
observed_property = "inhibition"
number = 7

[[record]]
chem_smiles = "O=C(Nc1ccc(-c2ccncc2)c(Cl)n1)C1CC1"
experimental_system = "Adenosine receptor A1 (Homo sapiens) (UniProt P30542)"
observed_property = "inhibition"
number = 5

[[record]]
chem_smiles = "O=C(Nc1ccc(C2N=NN=N2)c(-c2ccco2)n1)C1CC1"
experimental_system = "Adenosine receptor A1 (Homo sapiens) (UniProt P30542)"
observed_property = "inhibition"
number = 1


----------
- EXPERIMENTAL_SYSTEM: Adenosine receptor A2a (Homo sapiens, UniProt P29274)
- Sequence (P29274 whole entry): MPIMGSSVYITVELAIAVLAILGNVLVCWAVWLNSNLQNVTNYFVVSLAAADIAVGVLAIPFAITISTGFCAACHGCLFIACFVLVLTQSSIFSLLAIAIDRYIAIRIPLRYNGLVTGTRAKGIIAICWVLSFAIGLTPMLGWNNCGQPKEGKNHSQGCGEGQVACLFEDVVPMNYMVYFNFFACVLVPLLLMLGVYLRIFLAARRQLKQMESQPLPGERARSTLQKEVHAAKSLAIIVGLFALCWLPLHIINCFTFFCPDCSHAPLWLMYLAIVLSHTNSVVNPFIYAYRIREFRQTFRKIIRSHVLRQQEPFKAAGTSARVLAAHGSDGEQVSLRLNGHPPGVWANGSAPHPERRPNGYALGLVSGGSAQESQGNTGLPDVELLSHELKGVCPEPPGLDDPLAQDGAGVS
This listing pairs molecules with measured Ki.
Provide the reading as a plain figure in nM.

[[record]]
chem_smiles = "O=C(Nc1ccc(-c2ccncc2)c(-c2cncs2)n1)C1CC1"
observed_property = "Ki"
number = 813

[[record]]
chem_smiles = "N#Cc1ccc(NC(=O)C2CC2)nc1-c1ccco1"
observed_property = "Ki"
number = 12

[[record]]
chem_smiles = "O=C(Nc1ccc(C2N=NN=N2)c(-c2ccco2)n1)C1CC1"
observed_property = "Ki"
number = 1640


For reference, reported Ki for Cc1ccc(-c2nc(NC(=O)C3CC3)ccc2-c2ccncc2)o1 stands at 11
